Reported IC50 by item:
# assayed system: GCN2 (Homo sapiens, UniProt Q9P2K8)
# Sequence (Q9P2K8 whole entry): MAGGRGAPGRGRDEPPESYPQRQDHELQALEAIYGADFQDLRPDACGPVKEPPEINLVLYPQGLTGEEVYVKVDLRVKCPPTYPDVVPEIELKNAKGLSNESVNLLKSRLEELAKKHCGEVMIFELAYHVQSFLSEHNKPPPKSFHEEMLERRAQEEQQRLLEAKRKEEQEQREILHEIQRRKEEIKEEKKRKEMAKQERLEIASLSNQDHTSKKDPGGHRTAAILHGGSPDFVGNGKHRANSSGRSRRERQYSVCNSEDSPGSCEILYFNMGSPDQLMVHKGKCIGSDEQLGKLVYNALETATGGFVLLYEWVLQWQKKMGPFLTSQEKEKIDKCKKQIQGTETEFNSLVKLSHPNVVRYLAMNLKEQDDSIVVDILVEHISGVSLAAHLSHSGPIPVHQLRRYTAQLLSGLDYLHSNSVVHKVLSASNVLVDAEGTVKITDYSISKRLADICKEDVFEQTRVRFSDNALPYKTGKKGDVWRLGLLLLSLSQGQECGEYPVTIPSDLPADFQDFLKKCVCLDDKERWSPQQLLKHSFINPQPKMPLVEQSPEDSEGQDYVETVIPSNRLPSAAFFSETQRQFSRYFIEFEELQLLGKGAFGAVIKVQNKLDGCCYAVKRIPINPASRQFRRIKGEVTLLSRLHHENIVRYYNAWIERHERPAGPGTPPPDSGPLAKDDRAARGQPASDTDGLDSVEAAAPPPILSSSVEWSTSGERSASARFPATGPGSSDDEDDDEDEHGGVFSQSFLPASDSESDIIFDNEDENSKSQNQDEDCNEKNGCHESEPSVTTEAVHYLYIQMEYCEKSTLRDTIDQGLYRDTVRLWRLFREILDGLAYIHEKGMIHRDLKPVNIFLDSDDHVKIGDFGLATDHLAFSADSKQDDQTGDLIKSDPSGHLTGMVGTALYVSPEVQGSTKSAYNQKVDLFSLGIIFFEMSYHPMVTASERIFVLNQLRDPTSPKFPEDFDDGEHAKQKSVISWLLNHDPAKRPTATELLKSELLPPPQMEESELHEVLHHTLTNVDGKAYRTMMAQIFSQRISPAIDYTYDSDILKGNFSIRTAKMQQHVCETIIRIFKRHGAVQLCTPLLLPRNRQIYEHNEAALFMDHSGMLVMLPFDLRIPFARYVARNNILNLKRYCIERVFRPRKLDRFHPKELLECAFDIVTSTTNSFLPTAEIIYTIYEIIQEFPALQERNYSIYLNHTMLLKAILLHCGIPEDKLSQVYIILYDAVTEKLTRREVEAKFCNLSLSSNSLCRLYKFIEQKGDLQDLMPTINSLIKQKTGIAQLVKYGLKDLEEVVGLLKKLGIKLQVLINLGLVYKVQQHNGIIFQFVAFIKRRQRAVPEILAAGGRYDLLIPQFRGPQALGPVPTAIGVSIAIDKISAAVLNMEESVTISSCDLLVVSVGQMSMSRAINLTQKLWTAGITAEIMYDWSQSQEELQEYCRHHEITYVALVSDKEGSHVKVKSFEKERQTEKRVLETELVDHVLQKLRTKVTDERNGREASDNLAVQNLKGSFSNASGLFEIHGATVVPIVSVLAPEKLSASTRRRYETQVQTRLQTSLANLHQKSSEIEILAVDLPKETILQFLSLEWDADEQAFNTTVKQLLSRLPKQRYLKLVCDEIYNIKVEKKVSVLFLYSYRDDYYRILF
# test description: GCN2 enzymatic endpoint assay: phosphorylation of GFP-eIF2α measured by TR-FRET (Lanthascreen)
# Format: biochemical
# measurement conditions: GCN2 biochemical IC50; 4 nM GCN2, 2 μM ATP, 80 nM GFP-eIF2α, 90 min RT; read-out: GCN2 activity
Where a name gives a salt, the structure may show the parent alone.

compound	IC50
CNC(=O)[C@]1(CC(F)F)CC[C@@H](Nc2ncc3c(Br)nn(-c4ccc(-c5nnc(C)s5)c(CCC#N)c4)c3n2)C1 [Example 53]	25 to 200 nM
CNC(=O)[C@]1(C)CC[C@@H](Nc2ncc3c(Br)nn(-c4ccc5c(c4)CN(S(C)(=O)=O)C5)c3n2)C1 [Example 61]	25 to 200 nM
CNC(=O)[C@]1(C)CC[C@@H](Nc2ncc3c(Br)nn(-c4cc(Cl)cc(CCN)c4)c3n2)C1 [Example 41, hydrochloride]	< 25 nM
COCCNC(=O)[C@@H]1CC[C@@H](Nc2ncc3c(Cl)nn(-c4ccc5ncccc5c4)c3n2)C1 [Example 14]	< 25 nM
CNC(=O)[C@]1(CC#N)CC[C@@H](Nc2ncc3c(Br)nn(-c4cc(F)c5ncccc5c4)c3n2)C1 [Example 40, hydrochloride]	< 25 nM
Cc1nnc(-c2ccc(-n3nc(Br)c4cnc(N[C@@H]5CC[C@](C(=O)N6CCNCC6)(C(C)C)C5)nc43)cc2CCC(N)=O)s1 [Example 28]	< 25 nM
Cc1nnc(-c2ccc(-n3nc(Br)c4cnc(N[C@@H]5CC[C@@](C)(O)C5)nc43)cc2CCC#N)s1 [Example 76]	25 to 200 nM

----------
# assayed system: GCN2 (Homo sapiens)
# test description: GCN2 enzymatic endpoint assay: phosphorylation of GFP-eIF2α measured by TR-FRET (Lanthascreen)
# Format: biochemical
# measurement conditions: tested as described in Example 77; compound and/or hydrochloride, dihydrochloride or trifluoroacetic acid salt; read-out: IC 50 Activity

molecule	IC50
CNC(=O)[C@]1(C)CC[C@@H](Nc2ncc3c(Br)nn(-c4ccc(-c5nnc(C)s5)c(OCS(C)(=O)=O)c4)c3n2)C1	25 to 200 nM
CNC(=O)[C@@H]1CC[C@@H](Nc2ncc3c(Br)nn(-c4ccc5ncc(Cl)cc5c4)c3n2)C1	25 to 200 nM
CNC(=O)[C@]1(C)CC[C@@H](Nc2ncc3c(Br)nn(-c4ccc(-c5ncco5)c(NC(=O)C5CNC5)c4)c3n2)C1	< 25 nM
CC1(C(=O)N2CCN3CCOC[C@@H]3C2)CC[C@@H](Nc2ncc3c(Br)nn(-c4cc(F)c5ncccc5c4)c3n2)C1 (stereo partly shown)	25 to 200 nM

----------
Listing of recorded pIC50 by entry.
# assayed system: GCN2 (Homo sapiens, UniProt Q9P2K8)
# test description: GCN2 enzymatic endpoint assay: phosphorylation of GFP-eIF2α measured by TR-FRET (Lanthascreen)
# Type: biochemical
# measurement conditions: tested as described in Example 77; compound and/or hydrochloride, dihydrochloride or trifluoroacetic acid salt; read-out: IC 50 Activity
pIC50: −log10 of the molar value.

compound	assayed system	pIC50
CNC(=O)[C@]1(C)CC[C@@H](Nc2ncc3c(Br)nn(-c4cc(CC#N)c5ncccc5c4)c3n2)C1	GCN2 (Homo sapiens, UniProt Q9P2K8)	> 7.60
CNC(=O)[C@]1(C(C)C)CC[C@@H](Nc2ncc3c(Br)nn(-c4cc([C@@H](C)N)c5nccnc5c4)c3n2)C1	GCN2 (Homo sapiens, UniProt Q9P2K8)	> 7.60
CNC(=O)[C@]1(CCC(F)(F)F)CC[C@@H](Nc2ncc3c(Br)nn(-c4cc(F)c5ncccc5c4)c3n2)C1	GCN2 (Homo sapiens, UniProt Q9P2K8)	6.70 to 7.60
COCCNC(=O)[C@@H]1CC[C@@H](Nc2ncc3c(Br)nn(-c4ccc(-n5cccn5)cc4)c3n2)C1	GCN2 (Homo sapiens, UniProt Q9P2K8)	6.30 to 6.70
O=C([C@@H]1CC[C@@H](Nc2ncc3c(Br)nn(-c4cc(F)c5ncccc5c4)c3n2)C1)N1CCN2CCOC[C@@H]2C1	GCN2 (Homo sapiens, UniProt Q9P2K8)	6.70 to 7.60
CC1(C(=O)NCCF)CC[C@@H](Nc2ncc3c(Br)nn(-c4cc(F)c5ncccc5c4)c3n2)C1 (some centres unmarked)	GCN2 (Homo sapiens, UniProt Q9P2K8)	6.70 to 7.60
CNC(=O)[C@]1(C)CC[C@@H](Nc2ncc3c(Br)nn(-c4cc([C@H](C)N)c5nccnc5c4)c3n2)C1	GCN2 (Homo sapiens, UniProt Q9P2K8)	6.70 to 7.60
CNC(=O)[C@]1(C)CC[C@@H](Nc2ncc3c(Br)nn(-c4ccc(-c5ccn(C)n5)cc4)c3n2)C1	GCN2 (Homo sapiens, UniProt Q9P2K8)	6.70 to 7.60

----------
# assayed system: GCN2 (Homo sapiens)
# test description: GCN2 enzymatic endpoint assay: phosphorylation of GFP-eIF2α measured by TR-FRET (Lanthascreen)
# Format: biochemical
# measurement conditions: tested as described in Example 77; compound and/or hydrochloride, dihydrochloride or trifluoroacetic acid salt; read-out: IC 50 Activity
# Procedure: The Enzymatic assay was run as an endpoint assay to quantify the activity of the serine/threonine GCN2 kinase by way of measuring phosphorylation of its natural substrate, eiF2α. The enzymatic reaction was initiated by incubating with 2 μM ATP and 80 nM of GFP labeled eiF2a substrate at room temperature and then stopped after 90 minutes with EDTA. The amount of phosphorylated eIF2α is determined by TR-FRET (Lanthascreen). […]
pIC50: −log10 of the molar value.

molecule	assayed system	pIC50
Cc1nnc(-c2ccc(-n3nc(Br)c4cnc(N[C@@H]5CC[C@@H](NC(=O)C(C)C)C5)nc43)cc2CCC#N)s1	GCN2 (Homo sapiens)	6.00 to 6.30
CNC(=O)[C@]1(C)CC[C@@H](Nc2ncc3c(Br)nn(-c4cc(C(C)(C)O)c5ncccc5c4)c3n2)C1	GCN2 (Homo sapiens)	6.70 to 7.60
CS(=O)(=O)CCNC(=O)[C@@H]1CC[C@@H](Nc2ncc3c(Br)nn(-c4cc(C(F)F)c5ncccc5c4)c3n2)C1	GCN2 (Homo sapiens)	6.30 to 6.70
CNC(=O)[C@]1(C)CC[C@@H](Nc2ncc3c(Br)nn(-c4cc(F)cc(CC#N)c4)c3n2)C1	GCN2 (Homo sapiens)	6.70 to 7.60
CNC(=O)[C@]1(C)CC[C@@H](Nc2ncc3c(Br)nn(-c4cc(CCNS(C)(=O)=O)c5ncccc5c4)c3n2)C1	GCN2 (Homo sapiens)	6.70 to 7.60
CC1(C(=O)NC2CCOCC2)CC(Nc2ncc3c(Br)nn(-c4ccc5ncccc5c4)c3n2)C1 (stereo not shown)	GCN2 (Homo sapiens)	6.70 to 7.60
CNC(=O)[C@]1(C)CC[C@@H](Nc2ncc3c(Br)nn(-c4cc(Cl)cc([C@H](C)N(C)C)c4)c3n2)C1	GCN2 (Homo sapiens)	6.70 to 7.60
CNC(=O)C1(C)CC[C@@H](Nc2ncc3c(Br)nn(-c4ccc(Cn5ccnc5)cc4)c3n2)C1 (stereo partly shown)	GCN2 (Homo sapiens)	6.70 to 7.60
N#Cc1cc(-n2nc(Br)c3cnc(N[C@@H]4CC[C@@H](C(=O)N5CCNC(=O)C5)C4)nc32)cc2cccnc12	GCN2 (Homo sapiens)	> 7.60
CNC(=O)[C@]1(C)CC[C@@H](Nc2ncc3c(Br)nn(-c4ccc5ncnn5c4)c3n2)C1	GCN2 (Homo sapiens)	6.70 to 7.60
Fc1cc(-n2nc(Br)c3cnc(N[C@H]4CCOC4)nc32)cc2cccnc12	GCN2 (Homo sapiens)	6.70 to 7.60
CNC(=O)[C@]1(C)CC[C@@H](Nc2ncc3c(Br)nn(-c4ccc(-c5ccon5)cc4)c3n2)C1	GCN2 (Homo sapiens)	6.70 to 7.60
Cc1nnc(-c2ccc(-n3nc(Br)c4cnc(N[C@@H]5CC[C@](C)(O)C5)nc43)cc2CCC#N)s1	GCN2 (Homo sapiens)	6.70 to 7.60
O=C([C@@H]1CC[C@@H](Nc2ncc3c(Br)nn(-c4cc(F)c5ncccc5c4)c3n2)C1)N1CCC2(CNC2)C(F)(F)C1	GCN2 (Homo sapiens)	> 7.60
CNC(=O)[C@]1(C)CC[C@@H](Nc2ncc3c(Br)nn(-c4ccc(-c5nnc(CCOC)o5)cc4)c3n2)C1	GCN2 (Homo sapiens)	> 7.60
CNC(=O)[C@]1(C)CC[C@@H](Nc2ncc3c(Br)nn(-c4ccc(-c5cnn(C)c5)cc4)c3n2)C1	GCN2 (Homo sapiens)	6.70 to 7.60

----------
# assayed system: GCN2 (Homo sapiens)
# test description: GCN2 enzymatic endpoint assay: phosphorylation of GFP-eIF2α measured by TR-FRET (Lanthascreen)
# Format: biochemical
# measurement conditions: tested as described in Example 77; compound and/or hydrochloride, dihydrochloride or trifluoroacetic acid salt; read-out: IC 50 Activity
pIC50: −log10 of the molar value.
pIC50 listing for selected compounds.
measurement type: pIC50

compound	measured value
CNC(=O)[C@]1(C)CC[C@@H](Nc2ncc3c(Br)nn(-c4ccc5c(c4)CCNC5=O)c3n2)C1	6.70 to 7.60
CNC(=O)[C@]1(C)CC[C@@H](Nc2ncc3c(Br)nn(-c4ccc5c(c4)OCC(=O)N5CC#N)c3n2)C1	6.70 to 7.60
CC[C@@]1(C(=O)NC)CC[C@@H](Nc2ncc3c(I)nn(-c4cc(F)c5ncccc5c4)c3n2)C1	> 7.60
Cc1nnc(-c2ccc(-n3nc(Br)c4cnc(N[C@@H]5CC[C@@H](NC(=O)[C@@H]6CCCCN6)C5)nc43)cc2)s1	6.70 to 7.60
N#Cc1cc(-n2nc(Br)c3cnc(N[C@@H]4CC[C@@H](C(=O)N5CCC5)C4)nc32)cc2cccnc12	6.70 to 7.60
Cc1nnc(-c2ccc(-n3nc(Br)c4cnc(N[C@@H]5CCC(S(=O)(=O)NCCC#N)C5)nc43)cc2)s1 (stereo partly shown)	6.70 to 7.60
CNC(=O)[C@]1(C)CC[C@@H](Nc2ncc3c(Br)nn(-c4cc(C5CNCCO5)c5ncccc5c4)c3n2)C1 (stereo partly shown)	6.70 to 7.60
Cc1nnc(-c2ccc(-n3nc(Br)c4cnc(N[C@@H]5CC[C@@](C)(C(=O)N6CCP(C)(=O)CC6)C5)nc43)cc2)s1	6.70 to 7.60
CNC(=O)[C@]1(C)CC[C@@H](Nc2ncc3c(Br)nn(-c4ccc(C#N)c(OCCO)c4)c3n2)C1	6.70 to 7.60
CNC(=O)[C@]1(C(C)C)CC[C@@H](Nc2ncc3c(Br)nn(-c4ccc(-c5nnc(C)s5)c(CCC#N)c4)c3n2)C1	6.70 to 7.60
CNC(=O)[C@]1(C)CC[C@@H](Nc2ncc3c(Br)nn(-c4ccc(-c5nnc(C)s5)c(CCO)c4)c3n2)C1	6.70 to 7.60
CNC(=O)[C@]1(C)CC[C@@H](Nc2ncc3c(Br)nn(-c4cc(Cl)cc(C(C)O)c4)c3n2)C1 (stereo partly shown)	> 7.60
N#Cc1cc(-n2nc(Br)c3cnc(N[C@@H]4CC[C@@H](C(=O)NCC5(F)CNC5)C4)nc32)cc2cccnc12	> 7.60
CNC(=O)[C@@H]1CC[C@@H](Nc2ncc3c(I)nn(-c4ccc(-c5nnc(C)o5)cc4)c3n2)C1	6.70 to 7.60
C[C@@H]1C(=O)N(C)CCN1C(=O)[C@@H]1CC[C@@H](Nc2ncc3c(Br)nn(-c4cc(C#N)c5ncccc5c4)c3n2)C1	> 7.60
CNC(=O)[C@]1(C)CC[C@@H](Nc2ncc3c(Br)nn(-c4ccc(C5=NCCO5)cc4)c3n2)C1	6.70 to 7.60
